# System: NCI-H3122
# ASSAY: relative viability (nuclei count vs DMSO), 5 days (fraction); higher = more cells survive
# CONDITION PARAMETERS: first compound 0.01581 µM
PROPERTY MEASURED: relative viability
When you answer, write just the number.

{"columns": ["COMPOUND", "relative viability"],
 "data": [
  ["COc1cc2nccc(Oc3ccc(NC(=O)Nc4cc(C)on4)c(Cl)c3)c2cc1OC [Tivozanib] + NC(=O)Nc1cc(-c2cccc(F)c2)sc1C(=O)N[C@H]1CCCNC1 [AZD7762] (partner 0.2 µM)", 0.876],
  ["Nc1ccn([C@@H]2O[C@H](CO)[C@@H](O)[C@@H]2O)c(=O)n1 [Cytarabine] + COc1cccc2cc(-c3nc([C@H]4CC[C@H](C(=O)O)CC4)n4ncnc(N)c34)[nH]c12 [OSI-027] (partner 0.5 µM)", 0.873],
  ["COc1cc2nccc(Oc3ccc(NC(=O)Nc4cc(C)on4)c(Cl)c3)c2cc1OC [Tivozanib] + CS(=O)(=O)N1CCN(Cc2cc3nc(-c4cccc5[nH]ncc45)nc(N4CCOCC4)c3s2)CC1 [Pictilisib] (partner 1 µM)", 0.547]
]}

From here, focus on the item given below.
// lookup relative viability for Nc1ccn([C@@H]2O[C@H](CO)[C@@H](O)[C@@H]2O)c(=O)n1 [Cytarabine] + CC(=O)Nc1cccc(-n2c(=O)n(C3CC3)c(=O)c3c(Nc4ccc(I)cc4F)n(C)c(=O)c(C)c32)c1 [Trametinib] (partner 0.02 µM)
0.252
